test: Plasma stability, mouse plasma; assay type: in vitro ADME; conditions: female, CD-1, mouse, pooled plasma
experimental.readout: remaining at 6 h, 200 µM (%)
Only the number, expressed in %, is required.

Enquiry: For Nc1ncnc2c1ncn2[C@@H]1O[C@H](CNS(=O)(=O)NC(=O)c2ccccc2O)[C@@H](O)[C@H]1F , what is its reported remaining at 6 h, 200 µM?
Return: 100

----------
assay: Plasma stability, human plasma; assay type: in vitro ADME; settings: female, pooled plasma
experimental.readout: remaining at 6 h, 200 µM (%)
Answer in %, number only, no unit symbol.

Enquiry: If you can, please state the reported remaining at 6 h, 200 µM value of Nc1ncnc2c1ncn2[C@@H]1O[C@H](CNS(=O)(=O)NC(=O)c2ccccc2O)[C@@H](O)[C@H]1F .
Return: 100
